Kd by entry:
Molecular target: T1, IFN-αG (human, UniProt P01569 24-189)
T1 construct: also called IFN-α5; alpha G
Assay: ProteOn, one antigen concentration
Number only, in nM; omit the unit.

Recorded Kd, per entry:
binder	Kd, nM
IFWM3360 (antibody, V domains shown, VH IFWH624, VL IFWL1048; converted mAb; also called IFWB3095) VH: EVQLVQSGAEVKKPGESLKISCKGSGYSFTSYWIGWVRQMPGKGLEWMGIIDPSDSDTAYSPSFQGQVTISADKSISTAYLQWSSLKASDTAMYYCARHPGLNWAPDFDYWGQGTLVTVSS VL: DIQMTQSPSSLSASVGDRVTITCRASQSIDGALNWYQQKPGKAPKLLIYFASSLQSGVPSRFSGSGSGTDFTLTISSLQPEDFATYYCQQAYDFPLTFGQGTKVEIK	0.043
IFWM3313 (antibody, V domains shown, VH IFWH591, VL IFWL1013; converted mAb; also called IFWB3048) VH: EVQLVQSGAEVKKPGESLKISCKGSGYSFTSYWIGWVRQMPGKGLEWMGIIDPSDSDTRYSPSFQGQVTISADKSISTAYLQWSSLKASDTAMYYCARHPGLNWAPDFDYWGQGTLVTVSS VL: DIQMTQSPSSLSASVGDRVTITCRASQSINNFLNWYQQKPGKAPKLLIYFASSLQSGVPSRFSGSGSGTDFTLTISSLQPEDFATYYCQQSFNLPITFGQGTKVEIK	0.118

Please look at the following binder next.
Exercise: Find the recorded Kd belonging to IFWM3331 (antibody, V domains shown, VH IFWH591, VL IFWL1073; converted mAb; also called IFWB3066) VH: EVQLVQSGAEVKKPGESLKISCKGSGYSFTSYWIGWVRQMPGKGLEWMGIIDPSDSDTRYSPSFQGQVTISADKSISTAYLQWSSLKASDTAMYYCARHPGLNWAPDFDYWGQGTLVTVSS VL: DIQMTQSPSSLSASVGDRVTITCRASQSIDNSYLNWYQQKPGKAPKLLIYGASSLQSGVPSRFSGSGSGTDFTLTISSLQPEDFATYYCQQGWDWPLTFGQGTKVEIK and report it.
Solution: 0.015
